Source listed as paper PMC5540273.

# System: WNK1
# Conditions: concentration: 1 μM,replicates: in singlicate; n = 1;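 note: KINOMEscan kinase panel screen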
Label key: yes means %Inh under 10%; no means %Inh of 10% or more.

Compound: CCn1c(-c2nonc2N)nc2c(C#CC(C)(C)O)nc(OCCN)cc21.Cl.Cl [GSK902056]
Class Assignment: no
--
Compound: CN(C)CC(O)COc1ccc(Nc2nccc(-c3cnn4nc(N5CCOCC5)ccc34)n2)cc1 (centres unmarked) [GW767488]
Class Assignment: no
--
Compound: COc1ccc(C[C@@H](CN)NC(=O)c2cc(Br)c(-c3ccnc4[nH]ccc34)s2)cc1.Cl.Cl [GSK1389063]
Class Assignment: no
--
Compound: C[C@@H]1CCN(C(=O)CC#N)C[C@@H]1N(C)c1ncnc2[nH]ccc12
Class Assignment: yes
--
Compound: CC(C)N1C(=O)Cc2cc(Nc3ncc(C(F)(F)F)c(NCc4cccc(S(C)(=O)=O)c4)n3)ccc21
Class Assignment: yes
--
Compound: Cc1n[nH]c2ccc(-c3cc(OC[C@@H](N)Cc4ccccc4)cnc3-c3ccoc3)cc12.O=C(O)C(F)(F)F.O=C(O)C(F)(F)F [GSK507358]
Class Assignment: yes
--
Compound: C[C@@H](Oc1cc(-c2cnn(C3CCNCC3)c2)cnc1N)c1c(Cl)ccc(F)c1Cl
Class Assignment: no

---

# Tested on: CDC2L2
# Conditions: concentration: 1 μM,replicates: in singlicate; n = 1
Measurement Label: %Inh

Smi: NC(=O)c1cc(-c2ccccc2)cc2c(C3CCNCC3)c[nH]c12
Tested Target: CDC2L2
Measurement Label: %Inh
Obs Value: 17%

Smi: CN(C)CCOc1ccc(-c2cc(-c3c[nH]nc3-c3ccccn3)ccn2)cc1
Tested Target: CDC2L2
Measurement Label: %Inh
Obs Value: 9%

Smi: Cc1occc1-c1nc(N)c(OC[C@@H](N)Cc2c[nH]c3ccccc23)cc1-c1cc2c(C)n[nH]c2cn1
Tested Target: CDC2L2
Measurement Label: %Inh
Obs Value: 0%

Smi: C[C@H]1Oc2cc(cnc2N)-c2c(nn(C)c2C#N)CN(C)C(=O)c2ccc(F)cc21
Tested Target: CDC2L2
Measurement Label: %Inh
Obs Value: 18%

Smi: C[C@@H](Oc1cc(-c2cnn(C3CCNCC3)c2)cnc1N)c1c(Cl)ccc(F)c1Cl
Tested Target: CDC2L2
Measurement Label: %Inh
Obs Value: 55%

Smi: CCN(CC)CCOc1ccc(Nc2ncc3cc(-c4c(Cl)cccc4Cl)c(=O)n(C)c3n2)cc1
Tested Target: CDC2L2
Measurement Label: %Inh
Obs Value: 43%

Smi: CC(C)N1C(=O)Cc2cc(Nc3ncc(C(F)(F)F)c(NCc4cccc(S(C)(=O)=O)c4)n3)ccc21
Tested Target: CDC2L2
Measurement Label: %Inh
Obs Value: 3%

Smi: Nc1nc(Nc2ccccc2)cc(-c2ccc3c(N)n[nH]c3c2)n1
Tested Target: CDC2L2
Measurement Label: %Inh
Obs Value: 0%

Smi: Cc1n[nH]c2ccc(-c3cc(OC[C@@H](N)Cc4ccccc4)cnc3-c3ccoc3)cc12.O=C(O)C(F)(F)F.O=C(O)C(F)(F)F
Tested Target: CDC2L2
Measurement Label: %Inh
Obs Value: 0%

---

# System: MAP3K15
# Conditions: concentration: 1 μM,replicates: in singlicate; n = 1
The reader will find reported %Inh values listed item by item below.
Measurement Label: %Inh (%)

Smi: Cc1occc1-c1nc(N)c(OC[C@@H](N)Cc2c[nH]c3ccccc23)cc1-c1cc2c(C)n[nH]c2cn1
Obs Value: 20
//
Smi: Cl.Oc1cc(-c2nc(-c3ccccc3)[nH]c2-c2ccncc2)ccc1Cl
Obs Value: 18
//
Smi: CNC(=O)c1ccccc1Sc1ccc2c(/C=C/c3ccccn3)n[nH]c2c1
Obs Value: 0
//
Smi: COc1ccc(C[C@@H](CN)NC(=O)c2cc(Br)c(-c3ccnc4[nH]ccc34)s2)cc1.Cl.Cl
Obs Value: 7
